- System: A498
- experimental protocol: Antiproliferative activity against human A498 cells assessed as cell growth inhibition incubated for 24 hrs by MTT assay
- Type: functional, cell-based
- test parameters: A498, 24 h
IC50 strictly less than 10 µM = rule met. Otherwise rule not met.

Reference set, count: 4
CNC(=O)c1ccccc1Nc1nc(Nc2ccc(N3CCOCC3)cc2OC)ncc1Cl = rule met
Cn1c(SCCCCCC(=O)O)nnc1-c1ccncc1 = rule not met
CCn1c(SCCCCCC(=O)Nc2ccccc2N)nnc1-c1ccncc1 = rule not met
Nc1ccccc1NC(=O)CCCCCSc1nnc(-c2ccncc2)n1-c1ccccc1 = rule not met

INPUT: Please indicate whether the reported IC50 of "Cn1c(SCCCCCC(=O)NO)nnc1-c1ccncc1" is strictly below 10 µM.
OUTPUT: rule met

INPUT: Please indicate whether the reported IC50 of "C=CCn1c(SCCCCCC(=O)Nc2ccccc2N)nnc1-c1ccncc1" is strictly below 10 µM.
OUTPUT: rule met

* * *

- Test system: KG-1
- experimental protocol: Growth inhibition of human KG-1 cells at 10 uM incubated for 24 hrs by MTT assay relative to control
- Format: functional
- test parameters: KG-1, 24 h
Hi, to clarify the labels: MET covers inhibition in vitro at 10 µM from 20% upward, NOT MET covers anything below 20%.

INPUT: Threshold query (inhibition in vitro at 10 µM >= 20%) on "CCn1c(SCCCCCC(=O)NO)nnc1-c1ccncc1"
OUTPUT: NOT MET

INPUT: Threshold query (inhibition in vitro at 10 µM >= 20%) on "C=CCn1c(SCCCCCC(=O)O)nnc1-c1ccncc1"
OUTPUT: NOT MET

* * *

- Tested on: A498
- experimental protocol: Antiproliferative activity against human A498 cells assessed as cell growth inhibition incubated for 24 hrs by MTT assay
- Assay type: functional, cell-based
- test parameters: A498, 24 h
observed property: log10(IC50) (log10 of the value in µM)
Values reflect log10 of reported IC50 (µM).

CCn1c(SCCCCCC(=O)NO)nnc1-c1ccncc1 = 2.17
Cn1c(SCc2ccc(C(=O)NO)cc2)nnc1-c1ccncc1 = 1.32
CCn1c(SCc2ccc(C(=O)NO)cc2)nnc1-c1ccncc1 = 2.31
C=CCn1c(SCc2ccc(C(=O)NO)cc2)nnc1-c1ccncc1 = 1.12
C=CCn1c(SCCCCCC(=O)O)nnc1-c1ccncc1 = 1.93

Value of log10(IC50) reported for the compound "C=CCn1c(SCCCCCC(=O)NO)nnc1-c1ccncc1" is 1.88

Value of log10(IC50) reported for the compound "O=C(O)CCCCCSc1nnc(-c2ccncc2)n1-c1ccccc1" is 0.37

Value of log10(IC50) reported for the compound "Nc1ccccc1NC(=O)c1ccc(CSc2nnc(-c3ccncc3)n2-c2ccccc2)cc1" is 0.79

Value of log10(IC50) reported for the compound "Cn1c(SCc2ccc(C(=O)Nc3ccccc3N)cc2)nnc1-c1ccncc1" is 0.97

Value of log10(IC50) reported for the compound CCCC(CCC)C(=O)O [VALPROIC ACID] is 3.33

Value of log10(IC50) reported for the compound "CCn1c(SCc2ccc(C(=O)Nc3ccccc3N)cc2)nnc1-c1ccncc1" is 2.09

Value of log10(IC50) reported for the compound "O=C(NO)c1ccc(CSc2nnc(-c3ccncc3)n2-c2ccccc2)cc1" is 0.94

Value of log10(IC50) reported for the compound "Cn1c(SCCCCCC(=O)Nc2ccccc2N)nnc1-c1ccncc1" is 1.13

Value of log10(IC50) reported for the compound "CCn1c(SCCCCCC(=O)O)nnc1-c1ccncc1" is 2.10
